Reference source for all entries: PubChem BioAssay (NCI)

- Tested on: SF-268 CNS
- EXPERIMENT_DESCRIPTION: NCI-60 one-dose screen, 48 h
- CONDITION_CONTEXT: 10 µM
About 83,000 compounds went through this panel and 20% of them were active in at least one assay; those are over-represented in the sample as a whole. The source made the active and inactive calls. Rule for the calls: active = growth percent below 10; inactive = the rest.
Response enum: 1 (active), 0 (inactive)

// known answers, use as guide
CN(Cc1ccccc1)Cc1ccc([N+](=O)[O-])cc1I
0
ClCCOCCn1cnc2c(Cl)nc(Cl)nc21
0

For this molecule, state the assay outcome: `Cn1c(N)c(N=Nc2ccc(S(=O)(=O)Nc3nccs3)cc2)c(=O)n(C)c1=O`
0

Give the logged outcome of this assay for the following molecule: `COc1ccc(-c2nn(-c3cccc(NC(=O)Nc4ccc(Cl)c(C(F)(F)F)c4)c3)cc2-c2ccncc2)cc1Cl`
0

Field: outcome | Entry: `O=C(CCCCC(=O)Nc1ccc2c(c1)/C(=C/c1ccc[nH]1)C(=O)N2)NO`
0

// outcome(item) with item = `FC(F)(F)c1ccc(-c2cnc(Cl)nc2N2CCC3(CC2)OCCO3)cc1`
0

What did the test return for `N=C1c2nc3n(c2C(=O)c2nc4n(c21)CCCC4)CCCC3` ?
0

Tell me the assay call for `Nc1ccccc1NC(=O)CCCCC(=O)Nc1ccc2c(c1)/C(=C/c1ccc[nH]1)C(=O)N2` please.
0

GET /call?item= CCOC(=O)N1C=CC2C=CC1C1C=CC=CC2N1C(=O)OCC (stereo unspecified) returns the recorded outcome of this test.
0

How did this test come out for `Cc1nc2ccccc2c(N)c1-c1cc(C)c2c(C)nc3ccccc3c2n1` ?
1

Given `COc1cc(/C=N/NC(=O)c2ccccc2Nc2cccc(C(F)(F)F)c2)cc(OC)c1OC` , state the outcome it received in this test.
0

Can you look up the reported call for O=C1OCC2=C1C(c1cccc(Cl)c1)c1cc3c(cc1N2CCO)OCCO3 (stereo unspecified) for me?
0

Tell me the assay call for `Cc1cc(=O)n2nnc3c4ccccc4ccc3n12` please.
0

I would be grateful if you could indicate the recorded call for `COc1ccc(S(=O)(=O)Nc2c(/C=C\c3cc(OC)c(OC)c(OC)c3)ccc(OC)c2O)cc1` .
0

Which outcome did this test record for the molecule `Cc1ccc(N=Nc2c(N)nc(N)[nH]c2=O)cc1C` ?
0

Hi, do you know how `Nc1nc(N)c2c(ccc3nccc32)[nH]1` came out in this test?
0

###

- Tested on: EKVX NSCLC
- EXPERIMENT_DESCRIPTION: NCI-60 one-dose screen, 48 h (100 = growth as untreated, 0 = no growth, -100 = all killed)
- CONDITION_CONTEXT: 10 µM
The panel holds about 83,000 compounds, 20% with a hit somewhere; the sample as a whole holds those more often.
// bucketize growth: c1 = under 40%, c2 = from 40% up to 70%, c3 = 70% and over

Would you please look over these solved cases?
Cc1nc2ccc(CN(C)c3ccc(C(=O)N[C@@H](CCC(=O)O)C(=O)O)s3)cc2c(=O)[nH]1
c3
COc1ccc2c(c1)sc1nc(-c3ccccc3)c(-c3cccnc3)n12
c3
COc1cc2c(cc1OCCCN1CCN(c3ncnc4ccccc34)CC1)N=CC1CCCN1C2=O (stereo not drawn)
c1
N#Cc1cc(-c2cc3ccccc3o2)oc1N
c1
CN(C)CC(O)c1ccc2cc(Br)c3ccccc3c2c1 (stereo not drawn)
c2
CCCCC/C=C/C(=O)CCc1ccc(O)c(OC)c1
c3
CN1c2ccccc2[C@]2(Cc3ccccc3)Cc3ccccc3N[C@H]12
c3
COc1cc(/C(=C2/O[C@@H]([C@H]3COC(C)(C)O3)[C@H]3OC(C)(C)O[C@@H]23)c2ccc3ccccc3c2)cc(OC)c1OC
c2

For the record `CN(C)c1ccc(-c2cc(-c3cccc(NS(C)(=O)=O)c3)nc(N)c2C#N)cc1` , report the class its growth corresponds to.
c1

###

- System: NCI-H460 lung
- EXPERIMENT_DESCRIPTION: NCI-60 one-dose screen, 48 h (100 = growth as untreated, 0 = no growth, -100 = all killed)
- CONDITION_CONTEXT: 10 µM
About 83,000 compounds went through this panel and 20% of them were active in at least one assay; those are over-represented in the sample as a whole.
ENDPOINT: growth (%)
State just the number; it will be interpreted in %.

Illustrative cases are given below, each with its answer.
Clc1ccc(Nc2ccnc(NCCCNc3ccnc4cc(Cl)ccc34)n2)cc1
-28.8
Cn1c(C(N)=O)cc2c1-c1nc(Nc3ccccc3)ncc1CCC2
37.6
Clc1ccc2c(NCCCNc3nccc(Nc4ccc(Br)cc4)n3)ccnc2c1
-45.9
O=C(Nc1cccc(-n2cc(-c3ccncc3)c(-c3ccc(O)c(Cl)c3)n2)c1)c1ccc(Cl)c(Cl)c1
20.8

Sure, the documented growth for `Nc1c(C(=O)Nc2ccccc2)sc2nc3c(cc12)CCCC3` is 10.9

The reported growth of the compound `CCCCCCCNc1nc(C=O)ncc1-c1ccc(C(F)(F)F)cc1` was 103

Entry `c1ccc(CSc2nnc3c4c5c(sc4nc(-c4cccnc4)n23)CCCCCC5)cc1` , growth reported as 19.3

For reference, reported growth for OCC1OC(n2cnc3c(N/N=C\c4ccccn4)ncnc32)C(O)C1O (centres undefined) stands at 1.62

growth measured on `C[N+](C)(C)c1ncnc2nc[nH]c12` = 104

# growth of Cc1cn(C2CCCCO2)c(=O)nc1NO (centres undefined) = 107

Sample `CCCCCC(=O)c1ccc(OCCCN2CCN(C(=O)OCC)CC2)cc1` ; growth observed: 99.1

Noted for `O=[N+]([O-])c1ccc(Oc2cc(Cl)c(Cl)cc2Cl)c(C(F)(F)F)c1` : its growth reads 97.7

growth reading for `O=C(Nc1ccccc1)Nc1cccc(-n2cc(-c3ccncc3)c(-c3ccc(O)c(Cl)c3)n2)c1` : 25.2

// sample `N#Cc1ncc(-c2cc(F)c(F)c(F)c2)c(NC2CCCCCC2)n1` , its growth was 95.7

// growth lookup, compound = COc1cc([C@@H]2c3cc4c(cc3C(Br)[C@H]3COC(=O)[C@H]23)OCO4)cc(OC)c1OC (some centres undefined) , result: -50.8

// sample CCOC(=O)CCC(NC(=O)c1ccc(N)cc1)C(=O)OCC (centres undefined) , its growth was 118

// growth value for `CCN(CCCCCCCCCCN1CC(=O)N(CCCCCCCCCCN(CC)Cc2ccccc2OC)CC1=O)Cc1ccccc1OC` : -93.3

The recorded growth for entry `FC(F)(F)c1ccc2nc(-c3nc(-c4ccccc4)n4ccccc34)[nH]c2c1` equals 59.4

Value of growth reported for the compound `COc1cc2nc(Nc3cccc(C(=O)O)c3)nc(N)c2cc1OC` is 108

###

- Test system: LOX IMVI melanoma
- EXPERIMENT_DESCRIPTION: NCI-60 one-dose screen, 48 h (100 = growth as untreated, 0 = no growth, -100 = all killed)
- CONDITION_CONTEXT: 10 µM
About 83,000 compounds went through this panel and 20% of them were active in at least one assay; those are over-represented in the sample as a whole.
# TRUE = growth below 50% (exclusive); FALSE = growth at/above 50%

Answered examples (4):
COc1cc(Nc2ccnc(NCCNc3ccnc4cc(Cl)ccc34)n2)cc(OC)c1
TRUE
CN(C)CCN1C(=O)c2cccc3c(-c4ccc5ncn(C6CCCCC6)c5c4)ccc(c23)C1=O
TRUE
Nc1c(C(=O)Nc2cccc(Br)c2)sc2nc3c(cc12)C(O)CCC3 (stereo not given)
TRUE
O=[N+]([O-])c1cccc(-c2ncc(-c3ccc(Cl)cc3Cl)[nH]2)c1
TRUE

Input CCOC1(OCC)OC(c2ccccc2)=C(C#N)C(/C=C\c2ccccc2)C1(OCC)OCC (stereo not given) ; condition: growth strictly below 50%. Does it hold?
FALSE

Record `COc1ccc(Cn2c(C(N)=O)cc3c2-c2nc(N)ncc2CCC3)cc1` : is its growth strictly below 50%?
FALSE

is_below(growth, 50%) for `COc1cc(/C(=C2/O[C@@H]([C@H]3COC(C)(C)O3)[C@H]3OC(C)(C)O[C@@H]23)c2ccc3ccccc3c2)cc(OC)c1OC` ?
TRUE

###

- System: UACC-257 melanoma
- EXPERIMENT_DESCRIPTION: NCI-60 one-dose screen, 48 h
- CONDITION_CONTEXT: 10 µM
The panel holds about 83,000 compounds, 20% with a hit somewhere; the sample as a whole holds those more often. The source made the active and inactive calls. Rule for the calls: active = growth percent below 10; inactive = the rest.
API: response.call in active, inactive

COc1cc(-c2cc(/C=C3\C(=O)Nc4ccc(Cl)cc43)[nH]n2)cc(OC)c1OC
inactive
CC(=O)c1nc2ccccc2n1CCN1CCN(C)CC1
inactive
COc1ccc2c(c1OC)O/C(=C\c1ncc([N+](=O)[O-])n1C)C2=O
active
NC1(C(=O)O)CSSC1
inactive

Hey, what did the test say about `COc1ccc(/C=C2/CN(C(=O)c3ccccc3F)C/C(=C\c3ccc(OC)cc3)C2=O)cc1` ?
inactive

What classification did COc1ccc(OC)c2c1C(=O)CC2C (stereo not drawn) end up with in this test?
inactive
